Property: viability at 1.667 µM; scope: individual compounds
- Tested on: PC3 cells
- test.name: PC3 growth inhibition (Cell-titer glo, 72 hours)
- Type: cell-based
- measurement.setup: Homo sapiens, PC-3, 72 h, read-out: Percent Viability, PC3 cells, compound concentration 1.667 μM, 72 hours
endpoint: viability at 1.667 µM (%)

INSERT INTO results (structure_smiles_string, unit_text, number) VALUES
  ('CCOc1cc(-c2ccc(F)cc2)nc2cc(C(=O)NCCCc3nnc[nH]3)ccc12', '%', 1),
  ('CCOc1cc(-c2ccc(F)cc2)nc2cc(C(=O)NCc3nc(N)n[nH]3)ccc12', '%', 9),
  ('O=C(NCCCc1ncc[nH]1)c1ccc2c(CN3CCSCC3)nc(-c3ccc(Cl)cc3)nc2c1', '%', 1),
  ('CCCc1nc(-c2ccc(Cl)cc2)nc2cc(C(=O)NCCc3cncn3C)ccc12', '%', 2);

====

- assayed.target: hNAMPT protein (Homo sapiens (Human))
- Sequence (P43490 whole entry): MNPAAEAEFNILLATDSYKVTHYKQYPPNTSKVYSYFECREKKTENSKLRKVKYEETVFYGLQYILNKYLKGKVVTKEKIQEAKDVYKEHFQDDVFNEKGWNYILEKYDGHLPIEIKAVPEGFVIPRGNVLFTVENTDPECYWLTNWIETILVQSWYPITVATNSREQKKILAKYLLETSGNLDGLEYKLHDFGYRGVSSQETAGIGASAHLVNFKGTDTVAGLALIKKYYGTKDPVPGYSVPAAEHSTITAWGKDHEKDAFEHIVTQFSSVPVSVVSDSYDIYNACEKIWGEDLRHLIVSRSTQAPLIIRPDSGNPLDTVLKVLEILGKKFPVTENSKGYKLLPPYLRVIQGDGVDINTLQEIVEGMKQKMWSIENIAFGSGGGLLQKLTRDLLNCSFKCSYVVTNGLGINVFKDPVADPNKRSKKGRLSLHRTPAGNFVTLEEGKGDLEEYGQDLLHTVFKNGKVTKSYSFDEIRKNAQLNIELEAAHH
- test.name: NAMPT enzyme assay (TR-FRET/HTRF with BodiPY ligand)
- Type: binding
- measurement.setup: NAMPT inhibition at compound concentration 1 μM; read-out: Percent Inhibition
endpoint: inhibition at 1 µM (%)

INSERT INTO assay_data (molecule, prefix_operator, number) VALUES
  ('CCOCc1nc(-c2ccc(Cl)cc2)nc2cc(C(=O)NCCCc3ncc[nH]3)ccc12 [Compound I-20]', '=', 98),
  ('CCOc1cc(-c2ccn(C)c(=O)c2)nc2cc(C(=O)NCCCc3cc[nH]n3)ccc12 [Compound I-119]', '=', 100),
  ('CCOc1cc(-c2ccnc(C)c2)nc2cc(C(=O)NCc3nc4cnccc4[nH]3)ccc12 [Compound I-99]', '>', 99),
  ('CCOc1cc(-c2ccnc(OC)c2)nc2cc(C(=O)NCCCc3[nH]nnc3C)ccc12 [Compound I-71]', '=', 97),
  ('CCOc1cc(-c2ccc(F)cc2)nc2cc(C(=O)N[C@H]3C[C@@H](c4ncc[nH]4)C3)ccc12 [Compound I-60]', '=', 99),
  ('CCCc1cc(-c2ccc(F)cc2)nc2cc(C(=O)NCCCc3cc[nH]n3)ccc12 [Compound I-147]', '=', 92),
  ('CCOc1cc(-c2cc(F)ccc2OC)nc2cc(C(=O)NCCc3nnc[nH]3)ccc12 [Compound I-182]', '=', 77),
  ('CCOc1cc(-c2ccc(F)cc2)nc2cc(C(=O)NCCCn3cccn3)ccc12 [Compound I-43]', '=', 99),
  ('COCCOCc1nc(-c2ccc(Cl)cc2)nc2cc(C(=O)NCCCc3nnc[nH]3)ccc12 [Compound I-64]', '=', 91),
  ('CCOc1cc(-c2cc(F)ccc2OC)nc2cc(C(=O)NCCc3cnn[nH]3)ccc12 [Compound I-184]', '=', 91),
  ('O=C(NCCCc1ncc[nH]1)c1ccc2c(Cc3ccccc3)nc(-c3ccc(Cl)cc3)nc2c1 [Compound I-53]', '=', 93),
  ('COc1cc(-c2nc(-c3ccc(F)cc3)nc3cc(C(=O)NCCCc4ncc[nH]4)ccc23)ccn1 [Compound I-196]', '=', 100),
  ('CCOc1cc(-c2ccc(F)cc2)nc2cc(C(=O)NCCc3cn(C)cn3)ccc12 [Compound I-6]', '=', 94),
  ('CCOc1cc(-c2ccc(F)cc2)nc2cc(C(=O)NCCCc3nnc(N)[nH]3)ccc12 [Compound I-220]', '=', 92),
  ('CCOc1cc(-c2ccc(F)cc2)nc2cc(C(=O)NCCc3nnc[nH]3)ccc12 [Compound I-131]', '=', 99),
  ('CCOc1cc(-c2ccc(F)cc2OC)nc2cc(C(=O)NCCc3cnn[nH]3)ccc12 [Compound I-108]', '=', 99),
  ('CCc1nc(-c2ccc(Cl)s2)nc2cc(C(=O)NCCCc3ncc[nH]3)ccc12 [Compound I-22]', '>', 99),
  ('CCOc1cc(-c2ccc(C)nc2OC)nc2cc(C(=O)NCCc3c[nH]nc3C)ccc12 [Compound I-92]', '=', 95),
  ('CCOc1cc(-c2ccc(F)cc2OC)nc2cc(C(=O)NCCCc3[nH]nnc3C)ccc12 [Compound I-106]', '=', 100),
  ('CCOc1cc(-c2cc(OC)ncc2F)nc2cc(C(=O)NCCc3cnn[nH]3)ccc12 [Compound I-189]', '=', 74),
  ('Cc1cc(-c2nc(-c3ccc(F)cc3)nc3cc(C(=O)NCCCc4nnc[nH]4)ccc23)ccn1 [Compound I-162]', '=', 94),
  ('CCOc1cc(-c2ccc(OC)nc2)nc2cc(C(=O)NCCCc3nnc[nH]3)ccc12 [Compound I-101]', '=', 96),
  ('CCOc1cc(-c2ccc(=O)n(C)c2)nc2cc(C(=O)NCCCc3cnn[nH]3)ccc12 [Compound I-96]', '>', 99),
  ('CCOc1cc(-c2ccc(OC)nc2)nc2cc(C(=O)NCCc3cn[nH]c3C)ccc12 [Compound I-153]', '=', 98),
  ('CCOc1cc(C2CCOCC2)nc2cc(C(=O)NCCCc3nnc[nH]3)ccc12 [Compound I-135]', '=', 71),
  ('O=C(NCCCc1nnc[nH]1)c1ccc2c(-n3ccnc3)cc(-c3ccc(F)cc3)nc2c1 [Compound I-148]', '=', 99),
  ('CCOc1cc(-c2ccnc(OC)c2)nc2cc(C(=O)NCc3ccn4ncnc4c3)ccc12 [Compound I-70]', '=', 99),
  ('CCOc1cc(-c2ccc(F)cc2)nc2cc(C(=O)NCCCc3cnn[nH]3)ccc12 [Compound I-115]', '>', 99),
  ('CCOc1cc(-c2ccc(C)s2)nc2cc(C(=O)NCCCc3nnc[nH]3)ccc12 [Compound I-223]', '>', 99),
  ('CCOc1cc(-c2ccnc(C)c2)nc2cc(C(=O)NCCCc3nnc[nH]3)ccc12 [Compound I-202]', '=', 98),
  ('CCOc1cc(-c2cnccc2OC)nc2cc(C(=O)NCCCc3nnc[nH]3)ccc12 [Compound I-212]', '=', 69),
  ('CCOc1cc(-c2cc(C)cnc2OC)nc2cc(C(=O)NCCCc3nnc[nH]3)ccc12 [Compound I-159]', '=', 99);

====

- assayed.target: hNAMPT protein (Homo sapiens (Human))
- test.name: NAMPT enzyme assay (TR-FRET/HTRF with BodiPY ligand)
- Type: binding
- measurement.setup: NAMPT inhibition at compound concentration 1 μM; read-out: Percent Inhibition
endpoint: inhibition at 1 µM (%)

INSERT INTO results (molecule, unit_text, prefix_operator, number) VALUES
  ('CCOc1cc(-c2cccc(OC(F)(F)F)c2)nc2cc(C(=O)NCCCc3nnc[nH]3)ccc12', '%', '=', 92),
  ('CCOc1cc(-c2ccc(C)nc2)nc2cc(C(=O)NCCCc3nnc[nH]3)ccc12', '%', '=', 98),
  ('CCOc1cc(-c2ccc(C)nc2OC)nc2cc(C(=O)NCCCc3[nH]nnc3C)ccc12', '%', '=', 97),
  ('CCOc1cc(-c2ccnc(OC)c2F)nc2cc(C(=O)NCCCc3nnc[nH]3)ccc12', '%', '=', 97),
  ('CCOc1cc(-c2ccnc(C(F)(F)F)c2)nc2cc(C(=O)NCCCc3nnc[nH]3)ccc12', '%', '=', 93),
  ('CCCc1nc(-c2ccc(Cl)cc2)nc2cc(C(=O)NCc3ccc4nccn4c3)ccc12', '%', '=', 98),
  ('CCOc1cc(-c2cccc(S(C)(=O)=O)c2)nc2cc(C(=O)NCCCc3nnc[nH]3)ccc12', '%', '=', 97),
  ('CCOc1cc(-c2ccc(F)cc2)nc2cc(C(=O)NCCc3cncn3C)ccc12', '%', '>', 99),
  ('CCOc1cc(-c2ccc(F)cc2)nc2cc(C(=O)N[C@@H](C)c3nc4cnccc4[nH]3)ccc12', '%', '=', 60),
  ('CCOc1cc(-c2ccnc(C)c2)nc2cc(C(=O)NCCc3cnn[nH]3)ccc12', '%', '=', 86),
  ('CCOc1cc(-c2ccc(=O)n(C)c2)nc2cc(C(=O)NCCCc3nnc[nH]3)ccc12', '%', '>', 99),
  ('CCCc1nc(-c2ccc(Cl)cc2)nc2cc(C(=O)NCC3CC3c3ncc[nH]3)ccc12 (racemic)', '%', '=', 90),
  ('CCOc1cc(-c2ccnc(C)c2)nc2cc(C(=O)NCCc3c[nH]nc3C)ccc12', '%', '=', 87),
  ('CCOc1cc(-c2ccc(F)cc2)nc2cc(C(=O)NCCn3cncn3)ccc12', '%', '=', 93),
  ('CC(C)Oc1nc(-c2ccc(F)cc2)nc2cc(C(=O)NCCCc3ncc[nH]3)ccc12', '%', '>', 99),
  ('CCOc1cc(-c2ccnc(OC)c2)nc2cc(C(=O)NCCCc3cnn[nH]3)ccc12', '%', '=', 98);
